test system: CCRIS mutagenicity, Ames/micronucleus/aberration tests; assay: CCRIS mutagenicity studies; details: Test System: AMES SALMONELLA TYPHIMURIUM; Strain/Indicator: TA1535; Metabolic Activation: HAMSTER, LIVER, S-9, AROCLOR 1254 (10%); Method: PREINCUBATION
The source made the active and inactive calls. The rule behind the calls is not given here.
reported-metric: mutagenic call

smiles-representation	value-measured
Nc1nc(N)c2nc(-c3ccccc3)c(N)nc2n1	inactive; negative
CCOC(=O)OCC	inactive; negative
CCCCOC(=O)c1ccccc1C(=O)OC1CCCCC1	inactive; negative
O=C(CCl)c1ccccc1	inactive; negative
Nc1cc(Cl)ccc1O	active; positive
Nc1ccc2c(c1)C(=O)/C(=N/Nc1ccc(-c3ccc(N/N=C4/C(=O)c5c(N)cc(S(=O)(=O)O)cc5C=C4S(=O)(=O)O)cc3)cc1)C(S(=O)(=O)O)=C2	inactive; negative
Cc1ccc(N)c(N)c1	inactive; negative
CC(C)CC(=O)CC(C)C	inactive; negative
Clc1c(Cl)c(Br)c2c(c1Cl)-c1nc-2nc2[n-]c(nc3nc(nc4[n-]c(n1)c1c(Cl)c(Br)c(Cl)c(Br)c41)-c1c(Cl)c(Cl)c(Br)c(Cl)c1-3)c1c(Br)c(Cl)c(Br)c(Cl)c21.[Cu+2]	inactive; negative
c1ccc(CSCc2ccccc2)cc1	inactive; negative
O=C(NO)c1ccccc1	active; positive
Nc1ccc([N+](=O)[O-])cc1O	inactive; negative
CC1=CC(C)(C)Nc2ccccc21	inactive; negative
O=c1ccc(=O)[nH][nH]1	inactive; negative
Cc1cccc(Br)c1	inactive; negative
Cc1ccc(N)cc1C	inactive; negative
CCc1c(Br)c(Br)c(Br)c(Br)c1Br	inactive; negative
O=C1NC(=O)c2cc([N+](=O)[O-])ccc21	inactive; negative
COC(C)(C)CC(C)=O	inactive; negative
C=CC(=O)OCCN(C)C	inactive; negative
C=CCNCC=C	inactive; negative
